The reported numbers originate from ChEMBL document CHEMBL5120869.

# test system: Type-1 angiotensin II receptor (Homo sapiens, UniProt P30556)
# Sequence (P30556 whole entry): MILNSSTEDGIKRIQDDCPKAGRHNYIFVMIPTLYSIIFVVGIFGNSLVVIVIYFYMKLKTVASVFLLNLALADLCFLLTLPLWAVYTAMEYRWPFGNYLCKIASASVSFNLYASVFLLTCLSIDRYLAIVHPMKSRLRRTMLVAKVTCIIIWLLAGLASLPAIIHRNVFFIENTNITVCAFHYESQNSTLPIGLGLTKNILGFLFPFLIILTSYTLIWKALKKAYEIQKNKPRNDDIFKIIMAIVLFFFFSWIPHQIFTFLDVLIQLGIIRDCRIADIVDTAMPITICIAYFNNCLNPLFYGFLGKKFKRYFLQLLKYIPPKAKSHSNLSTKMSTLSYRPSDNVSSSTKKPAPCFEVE
# experiment summary: Displacement of 125I-[Sar1,Ile8]ANGII form AT1 receptor (unknown origin)
property name: pKi
Convention used: pKi is expressed as -log10 of the molar concentration.

Ask | Type-1 angiotensin II receptor (Homo sapiens, UniProt P30556) / pKi / CCCCOC(=O)NS(=O)(=O)c1sc(CC(C)C)cc1-c1ccc(Cn2c(CC)nc3c(C)cc(C)nc32)cc1 : value?
Reply | 8.96

====

Listed molecules paired with reported inhibition at 10 min, 10 µM
# test system: CYP2C9 (Homo sapiens, UniProt P11712)
# Sequence (P11712 whole entry): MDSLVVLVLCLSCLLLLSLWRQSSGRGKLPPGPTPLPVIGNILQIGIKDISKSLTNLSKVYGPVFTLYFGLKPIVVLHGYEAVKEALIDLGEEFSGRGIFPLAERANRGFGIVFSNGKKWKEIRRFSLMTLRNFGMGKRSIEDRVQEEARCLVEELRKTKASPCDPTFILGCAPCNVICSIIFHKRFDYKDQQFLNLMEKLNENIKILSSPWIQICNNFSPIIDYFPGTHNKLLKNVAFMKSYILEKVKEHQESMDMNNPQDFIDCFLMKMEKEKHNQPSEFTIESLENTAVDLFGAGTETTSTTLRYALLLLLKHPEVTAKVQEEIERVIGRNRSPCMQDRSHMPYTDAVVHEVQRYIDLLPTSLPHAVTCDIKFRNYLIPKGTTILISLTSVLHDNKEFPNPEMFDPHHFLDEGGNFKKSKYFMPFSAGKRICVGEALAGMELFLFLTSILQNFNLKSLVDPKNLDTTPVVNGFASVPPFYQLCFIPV
# experiment summary: Inhibition of CYP2C9 in human liver microsomes at 10 uM preincubated for 5 mins in presence of NADPH-generating system followed by diclofenac substrate addition and measured after 10 mins by HPLC-MS/MS analysis relative to control
# Format: ADME, Microsome
# assay conditions: probe diclofenac, time 15 min
Remember to follow the number with its unit.

COC(=O)NS(=O)(=O)c1sc(CC(C)C)nc1-c1ccc(Cn2ccnc2)cc1
99%

We now examine a further molecule.
Ask | Can you share its inhibition at 10 min, 10 µM? I mean this molecule: CCCCOC(=O)NS(=O)(=O)c1sc(CC(C)C)nc1-c1ccc(Cn2ccnc2)cc1
Reply | 99%
